Sourced from ChEMBL document CHEMBL3885881

Catalogue of LEUKOCYTE COUNT values
Organism: Rattus norvegicus
assay.method.text: DrugMatrix - Regimen: Daily Repeat
Format: toxicity, organism-based, Sprague-Dawley
Parameters: regimen Daily Repeat, gender Male, age 6-8 weeks
assay.context: in vivo, po, 0 mg/kg, 120 h, tissue Blood, route oral GAVAGE, dose level Control, time 5 day, vehicle 100 % WATER
endpoint.name: LEUKOCYTE COUNT (x10E3/uL)

| compound | endpoint.name | units.of.measure | measured.value |
| --- | --- | --- | --- |
| CC[C@H]1OC(=O)[C@H](C)[C@@H](O[C@H]2C[C@@](C)(OC)[C@@H](O)[C@H](C)O2)[C@H](C)[C@@H](O[C@@H]2O[C@H](C)C[C@H](N(C)C)[C@H]2O)[C@](C)(O)C[C@@H](C)CN(C)[C@H](C)[C@@H](O)[C@]1(C)O | LEUKOCYTE COUNT | x10E3/uL | 10.08 |
| CC[C@H]1OC(=O)[C@H](C)[C@@H](O[C@H]2C[C@@](C)(OC)[C@@H](O)[C@H](C)O2)[C@H](C)[C@@H](O[C@@H]2O[C@H](C)C[C@H](N(C)C)[C@H]2O)[C@](C)(OC)C[C@@H](C)C(=O)[C@H](C)[C@@H](O)[C@]1(C)O | LEUKOCYTE COUNT | x10E3/uL | 8.73 |
| CN1C2CCCC1CC(NC(=O)c1nn(C)c3ccccc13)C2 (configuration not stated) | LEUKOCYTE COUNT | x10E3/uL | 8.18 |
| Nc1ccc(S(=O)(=O)Nc2nccs2)cc1 | LEUKOCYTE COUNT | x10E3/uL | 8.18 |
| Nc1ccc(S(=O)(=O)Nc2ncccn2)cc1 | LEUKOCYTE COUNT | x10E3/uL | 12.34 |
| CC(C)(C)NC[C@H](O)COc1nsnc1N1CCOCC1 | LEUKOCYTE COUNT | x10E3/uL | 8.18 |
| O=C(O)c1cccnc1 | LEUKOCYTE COUNT | x10E3/uL | 14.75 |

* * *

Species: Rattus norvegicus
assay.method.text: DrugMatrix - Regimen: Daily Repeat
Type: toxicity, organism-based, Sprague-Dawley
Set-up: regimen Daily Repeat, gender Male, age 6-8 weeks
assay.context: in vivo, po, 0 mg/kg, 72 h, tissue Plasma, route oral GAVAGE, dose level Control, time 3 day, vehicle 100 % WATER

| compound | CHOLESTEROL |
| --- | --- |
| CCOC(N)=O | 77.67 mg/dL |
| O=C(O)c1cccnc1 | 66 mg/dL |
| CCN[C@@H](C)Cc1cccc(C(F)(F)F)c1 | 66.33 mg/dL |
| Cc1c(N(C)CS(=O)(=O)[O-])c(=O)n(-c2ccccc2)n1C.[Na+] [DIPYRONE SODIUM] | 76 mg/dL |
| Nc1ccc(S(=O)(=O)Nc2nccs2)cc1 | 79.67 mg/dL |
| OCCO | 65.17 mg/dL |
| CC[C@H]1OC(=O)[C@H](C)[C@@H](O[C@H]2C[C@@](C)(OC)[C@@H](O)[C@H](C)O2)[C@H](C)[C@@H](O[C@@H]2O[C@H](C)C[C@H](N(C)C)[C@H]2O)[C@](C)(O)C[C@@H](C)CN(C)[C@H](C)[C@@H](O)[C@]1(C)O | 65.17 mg/dL |
| CNS(=O)(=O)Cc1ccc2[nH]cc(CCN(C)C)c2c1 | 63.67 mg/dL |
| CCN(CC)CC#CCOC(=O)C(O)(c1ccccc1)C1CCCCC1 (centres undefined) | 71.83 mg/dL |

* * *

Species: Rattus norvegicus
assay.method.text: DrugMatrix - Regimen: Daily Repeat
Assay type: toxicity, organism-based, Sprague-Dawley
Set-up: regimen Daily Repeat, gender Male, age 6-8 weeks
assay.context: in vivo, po, 0 mg/kg, 120 h, tissue Plasma, route oral GAVAGE, dose level Control, time 5 day, […]
Entries and their CHOLESTEROL

| compound | units.of.measure | CHOLESTEROL |
| --- | --- | --- |
| C#C[C@]1(O)CC[C@H]2[C@@H]3CCc4cc(O)ccc4[C@H]3CC[C@@]21C | mg/dL | 74.83 |
| CC(=O)Nc1nnc(S(N)(=O)=O)s1 [ACETAZOLAMIDE] | mg/dL | 64.83 |
| CN(CCOc1ccc(CC2SC(=O)NC2=O)cc1)c1ccccn1 (stereo not given) | mg/dL | 68.83 |
| CCn1cc(C(=O)O)c(=O)c2cc(F)c(N3CCNCC3)nc21 | mg/dL | 74.83 |
| CC(C)Cc1ccc(CC(=O)O)cc1 | mg/dL | 71.5 |

* * *

Organism: Rattus norvegicus
assay.method.text: DrugMatrix - Regimen: Daily Repeat
Assay type: toxicity, organism-based, Sprague-Dawley
Design: regimen Daily Repeat, gender Male, age 6-8 weeks
assay.context: in vivo, po, 0 mg/kg, 72 h, tissue Blood, route oral GAVAGE, dose level Control, time 3 day, vehicle 100 % WATER
// not fulfilled strictly below 1% in MONOCYTE; fulfilled otherwise

| compound | class |
| --- | --- |
| CCOC(N)=O | not fulfilled |
| O=C(O)c1cc(=O)c2c(OCC(O)COc3cccc4oc(C(=O)O)cc(=O)c34)cccc2o1 | fulfilled |
| OCCO | not fulfilled |
| CC(C)(C)NC[C@H](O)COc1nsnc1N1CCOCC1 | not fulfilled |
| CC[C@H]1OC(=O)[C@H](C)[C@@H](O[C@H]2C[C@@](C)(OC)[C@@H](O)[C@H](C)O2)[C@H](C)[C@@H](O[C@@H]2O[C@H](C)C[C@H](N(C)C)[C@H]2O)[C@](C)(O)C[C@@H](C)CN(C)[C@H](C)[C@@H](O)[C@]1(C)O | not fulfilled |
| Cc1c(N(C)CS(=O)(=O)[O-])c(=O)n(-c2ccccc2)n1C.[Na+] [DIPYRONE SODIUM] | fulfilled |
| CCCc1nn(C)c2c(=O)[nH]c(-c3cc(S(=O)(=O)N4CCN(C)CC4)ccc3OCC)nc12 | not fulfilled |
| CNS(=O)(=O)Cc1ccc2[nH]cc(CCN(C)C)c2c1 | fulfilled |

* * *

Species on record: Rattus norvegicus
assay.method.text: DrugMatrix - Regimen: Daily Repeat
Format: toxicity, organism-based, Sprague-Dawley
Set-up: regimen Daily Repeat, gender Male, age 6-8 weeks
assay.context: in vivo, po, 0 mg/kg, 120 h, tissue Blood, route oral GAVAGE, dose level Control, time 5 day, vehicle .5 % CMC
endpoint.name: ABSOLUTE EOSINOPHIL (CELLS/uL)

| molecule | measured.value |
| --- | --- |
| CC(=O)O[C@]1(C(C)=O)CC[C@H]2[C@@H]3C=C(Cl)C4=CC(=O)[C@@H]5C[C@@H]5[C@]4(C)[C@H]3CC[C@@]21C [CYPROTERONE ACETATE] | 138.17 |
| COc1ccccc1OCC(O)COC(N)=O (centres undefined) | 69 |
| CC(C)(Sc1cc(C(C)(C)C)c(O)c(C(C)(C)C)c1)Sc1cc(C(C)(C)C)c(O)c(C(C)(C)C)c1 | 148.67 |
| CN1C(=O)CN=C(c2ccccc2)c2cc(Cl)ccc21 | 23.33 |
| C[C@@H]1CC[C@H]2[C@@H](C)C(=O)O[C@@H]3O[C@@]4(C)CC[C@@H]1[C@]32OO4 | 69 |
| COc1ccc(/C=C/C(=O)Nc2ccccc2C(=O)O)cc1OC | 148.67 |
| CCCCC1C(=O)N(c2ccccc2)N(c2ccccc2)C1=O | 67.33 |
| CCOC(=O)[C@H](CCc1ccccc1)N[C@@H](C)C(=O)N1Cc2ccccc2C[C@H]1C(=O)O | 138.17 |
| CO[C@H]1C[C@@H]2CC[C@@H](C)[C@@](O)(O2)C(=O)C(=O)N2CCCC[C@H]2C(=O)O[C@H]([C@H](C)C[C@@H]2CC[C@@H](O)[C@H](OC)C2)CC(=O)[C@H](C)/C=C(\C)[C@@H](O)[C@@H](OC)C(=O)[C@H](C)C[C@H](C)/C=C/C=C/C=C/1C | 31 |
| CC(C(=O)O)c1ccc(-c2ccccc2)c(F)c1 (centres undefined) | 148.67 |
| C[C@@H](O)[C@H]1C(=O)N2C(C(=O)O)=C(S[C@@H]3CN[C@H](C(=O)N(C)C)C3)[C@H](C)[C@H]12 | 148.67 |
| Cc1cnc(C(=O)NCCc2ccc(S(=O)(=O)NC(=O)NC3CCCCC3)cc2)cn1 [GLIPIZIDE] | 138.17 |

* * *

Organism: Rattus norvegicus
assay.method.text: DrugMatrix - Regimen: Daily Repeat
Assay type: toxicity, organism-based, Sprague-Dawley
Design: regimen Daily Repeat, gender Male, age 6-8 weeks
assay.context: in vivo, po, 1500 mg/kg, 120 h, tissue Blood, route oral GAVAGE, dose level High, time 5 day, vehicle .5 % CMC
Rule: measured ERYTHROCYTE COUNT below 6 x10E6/uL gets criterion met; anything equal to or greater than 6 x10E6/uL gets criterion not met.

| molecule | class |
| --- | --- |
| O=c1cc(-c2ccccc2)oc2ccc3ccccc3c12 | criterion not met |
| CC(C)(Sc1cc(C(C)(C)C)c(O)c(C(C)(C)C)c1)Sc1cc(C(C)(C)C)c(O)c(C(C)(C)C)c1 | criterion met |
| CCOC(=O)[C@H](CCc1ccccc1)N[C@@H](C)C(=O)N1CCC[C@H]1C(=O)O | criterion not met |
| C[C@@H](O)[C@H]1C(=O)N2C(C(=O)O)=C(S[C@@H]3CN[C@H](C(=O)N(C)C)C3)[C@H](C)[C@H]12 | criterion met |
| Nc1nc2c(c(=O)[nH]1)N(C=O)C(CNc1ccc(C(=O)N[C@@H](CCC(=O)O)C(=O)O)cc1)CN2 (stereo not given in full) | criterion met |
